Reported binding signal values are given for each entry in this list.
# TGT: AGO2 T357M (Homo sapiens, UniProt Q9UKV8 1-859, T357M;S387D;S824A;S828D;S831D;S834A)
# Sequence (Q9UKV8 whole entry T357M/S387D/S824A/S828D/S831D/S834A): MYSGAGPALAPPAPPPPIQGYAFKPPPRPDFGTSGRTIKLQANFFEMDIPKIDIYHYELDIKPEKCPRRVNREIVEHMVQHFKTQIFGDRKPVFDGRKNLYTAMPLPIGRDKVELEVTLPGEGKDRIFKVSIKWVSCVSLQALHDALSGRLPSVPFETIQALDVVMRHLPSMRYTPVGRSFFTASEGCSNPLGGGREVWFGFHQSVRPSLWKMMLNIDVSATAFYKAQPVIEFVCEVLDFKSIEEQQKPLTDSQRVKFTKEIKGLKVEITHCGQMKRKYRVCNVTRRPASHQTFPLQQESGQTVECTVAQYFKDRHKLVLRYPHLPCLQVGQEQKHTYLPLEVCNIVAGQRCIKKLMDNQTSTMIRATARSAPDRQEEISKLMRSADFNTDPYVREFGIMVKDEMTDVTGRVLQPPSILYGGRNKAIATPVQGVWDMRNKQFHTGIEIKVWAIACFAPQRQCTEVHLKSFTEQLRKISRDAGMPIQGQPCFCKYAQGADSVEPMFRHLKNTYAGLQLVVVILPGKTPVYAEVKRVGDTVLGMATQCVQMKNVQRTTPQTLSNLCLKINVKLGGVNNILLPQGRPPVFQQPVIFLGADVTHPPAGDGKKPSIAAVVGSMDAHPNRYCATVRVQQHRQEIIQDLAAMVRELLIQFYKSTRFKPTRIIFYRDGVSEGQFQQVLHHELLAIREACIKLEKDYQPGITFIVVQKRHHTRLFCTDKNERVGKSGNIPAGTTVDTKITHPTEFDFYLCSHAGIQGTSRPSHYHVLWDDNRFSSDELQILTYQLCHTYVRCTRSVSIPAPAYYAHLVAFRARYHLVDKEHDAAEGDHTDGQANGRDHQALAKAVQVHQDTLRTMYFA
# RUN_DESCRIPTION: RNA Bind-n-Seq (nitrocellulose filter binding and sequencing); miR-122 guide loaded in AGO2; 60 min incubation; 30 mM Tris pH 8.0, 100 mM potassium acetate, 2 mM magnesium acetate, 0.5 mM TCEP, 0.005% NP-40, 0.01 mg/ml yeast tRNA; 3 nM AGO2-miR-122, 100 nM RNA library; 60; high values mean tight binding
# MEASUREMENT_CONDITIONS: protein: recombinant; tags: His6 (N-terminal, pFastBac HTA)

Query: Supply binding signal value. Item: ACGCTTTA (ssRNA, constant regions annealed to DNA blockers; guide miR-122 5' phosphate) RNA 1: GAGUUCUACAGUCCGACGAUCCCAACACGCUUUACACCUGGAAUUCUCGGGUGCCAA RNA 2: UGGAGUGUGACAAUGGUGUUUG DNA 1: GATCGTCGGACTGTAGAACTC DNA 2: TTGGCACCCGAGAATTCCA
Reply: 0.588 fold enrichment over input

Query: Quickly give me recorded binding signal for GCGCTCCA (ssRNA, constant regions annealed to DNA blockers; guide miR-122 5' phosphate) RNA 1: GAGUUCUACAGUCCGACGAUCCCAACGCGCUCCACACCUGGAAUUCUCGGGUGCCAA RNA 2: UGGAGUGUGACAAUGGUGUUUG DNA 1: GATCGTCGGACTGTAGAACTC DNA 2: TTGGCACCCGAGAATTCCA
Reply: 1.03 fold enrichment over input

Query: Give binding signal for the following binder: ATATTTTA (ssRNA, constant regions annealed to DNA blockers; guide miR-122 5' phosphate) RNA 1: GAGUUCUACAGUCCGACGAUCCCAACAUAUUUUACACCUGGAAUUCUCGGGUGCCAA RNA 2: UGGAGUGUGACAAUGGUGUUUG DNA 1: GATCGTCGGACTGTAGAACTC DNA 2: TTGGCACCCGAGAATTCCA
Reply: 0.697 fold enrichment over input

Query: Complete the entry with binding signal for GCGTCTCG (ssRNA, constant regions annealed to DNA blockers; guide miR-122 5' phosphate) RNA 1: GAGUUCUACAGUCCGACGAUCCCAACGCGUCUCGCACCUGGAAUUCUCGGGUGCCAA RNA 2: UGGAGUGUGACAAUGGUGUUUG DNA 1: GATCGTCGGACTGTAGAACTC DNA 2: TTGGCACCCGAGAATTCCA
Reply: 0.498 fold enrichment over input

Query: Quickly give me recorded binding signal for GCATTCCG (ssRNA, constant regions annealed to DNA blockers; guide miR-122 5' phosphate) RNA 1: GAGUUCUACAGUCCGACGAUCCCAACGCAUUCCGCACCUGGAAUUCUCGGGUGCCAA RNA 2: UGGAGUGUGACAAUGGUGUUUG DNA 1: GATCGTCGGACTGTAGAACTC DNA 2: TTGGCACCCGAGAATTCCA
Reply: 0.548 fold enrichment over input

Query: For GCACTCCA (ssRNA, constant regions annealed to DNA blockers; guide miR-122 5' phosphate) RNA 1: GAGUUCUACAGUCCGACGAUCCCAACGCACUCCACACCUGGAAUUCUCGGGUGCCAA RNA 2: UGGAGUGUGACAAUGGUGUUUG DNA 1: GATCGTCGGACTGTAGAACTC DNA 2: TTGGCACCCGAGAATTCCA , write its binding signal.
Reply: 44 fold enrichment over input

Query: Give the value of binding signal reported for the following: GCATTTTG (ssRNA, constant regions annealed to DNA blockers; guide miR-122 5' phosphate) RNA 1: GAGUUCUACAGUCCGACGAUCCCAACGCAUUUUGCACCUGGAAUUCUCGGGUGCCAA RNA 2: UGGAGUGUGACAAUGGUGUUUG DNA 1: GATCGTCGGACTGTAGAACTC DNA 2: TTGGCACCCGAGAATTCCA
Reply: 0.449 fold enrichment over input

The values you see were collected from paper PMC12529666.
